- Test protocol: recombinant UMI read abundance after kanamycin selection (control-corrected) (log10(CPM+1)); higher = more efficient recombination; extreme values may be limits of the assay; sequences stand for … in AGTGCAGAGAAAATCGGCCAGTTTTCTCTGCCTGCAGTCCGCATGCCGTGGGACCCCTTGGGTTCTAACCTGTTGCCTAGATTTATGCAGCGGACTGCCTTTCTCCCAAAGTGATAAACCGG…AGGTTGGTTTCACT; site = the 11-nt donor;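 also: IS621 bridge recombinase in Escherichia coli cells against a fixed T5 target plasmid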
Recorded metric: recombinant UMI read abundance (log10)

GET /values?readout=recombinant UMI read abundance (log10)&item= AAGCTCGCATGGACCGGTTTTCCCGGTAATCCGTATTTGGG (site AAGCACGCTCC)
0.0201

Entry TAACGTTCATGGACCGGTTTTCCCGGTAATCCGTATTTGCA (site TAACGTTCTTG) : reported recombinant UMI read abundance (log10) = ?
1.75

State the recorded recombinant UMI read abundance (log10) for this entry: TTGGTACCATGGACCGGTTTTCCCGGTAATCCGTATTTGCA (site TTGGTACCTTG)
0.00424

Query: recombinant UMI read abundance (log10); subject: GTAGGTACATGGACCGGTTTTCCCGGTAATCCGTATTTGAC (site GTAGGTACTGC)
1.5

So what does the record say about recombinant UMI read abundance (log10) for TTCCACCCATGGACCGGTTTTCCCGGTAATCCGTATTTGTA (site TTCCACCCTTA) ?
0.00477

// recombinant UMI read abundance (log10) lookup, key: AACCGGTCATGGACCGGTTTTCCCGGTAATCCGTATTTGGA (site AACCGGTCTTC)
0.422

Can you share its recombinant UMI read abundance (log10)? I mean this sequence: CGGACATCATGGACCGGTTTTCCCGGTAATCCGTATTTGCT (site CGGACATCTAT)
1.21

Which recombinant UMI read abundance (log10) value belongs to AGTGAATCATGGACCGGTTTTCCCGGTAATCCGTATTTGAG (site AGTGAATCTCT) ?
2.17

What value of recombinant UMI read abundance (log10) has been reported for the following sequence? GCCCTCGCATGGACCGGTTTTCCCGGTAATCCGTATTTGAC (site GCCCTCGCTGT)
2.61

Origin of measurements: the supplement of paper PMC11208160
